reported conditions: in isopropanol, 303.15 K
quantity kind: solubility (mole fraction)

line notation | experimental value
O=c1c2ccccc2nc2n1CCc1c-2[nH]c2ccccc12 | 0.000201

###

reported conditions: in methanol, 313.15 K

line notation | solubility (mole fraction)
O=c1c2ccccc2nc2n1CCc1c-2[nH]c2ccccc12 | 0.000172

###

reported conditions: in water, 303.15 K

line notation | solubility (mole fraction)
O=c1c2ccccc2nc2n1CCc1c-2[nH]c2ccccc12 | 5.49e-09

###

reported conditions: in ethanol, 323.15 K

line notation | solubility (mole fraction)
O=c1c2ccccc2nc2n1CCc1c-2[nH]c2ccccc12 | 0.000509

Just for reference, BigSolDB 2.1 is where these values come from.
